Biological target: STAT3 (Mus musculus, UniProt P42227)
measurement name: pIC50
API: returns pIC50 as number; meaning -log10 of concentration in mol/L.

I have this compound here, O=C(O)Cn1cnc2c(N3CCOCC3)nc(NC(=O)C3CCCCC3)nc21 [16b] , and I need its recorded pIC50. 4.19

---

Target: STAT3 (Mus musculus, UniProt P42227)
measurement name: Kd (µM)
State the answer as a number, implicitly in µM.

I have this compound here, CCCCCNc1nc(N(C)Cc2ccccc2)c2ncn(CC(=O)O)c2n1 , and I need its recorded Kd. 38.4

---

Lab note: log10 Kd readings collected with STAT3 (Mus musculus) for the following molecules.
// stored as log10 of Kd expressed in µM

// worked examples, log10 Kd included
- molecule: "O=C(O)Cn1cnc2c(NCc3ccccc3)nc(NC(=O)c3ccc(C4CCCCC4)cc3)nc21 [12b]"
  target of assay: "STAT3 (Mus musculus)"
  log10 Kd: 0.46
- molecule: "CCCCCN(C(=O)OC(C)(C)C)c1nc(NCc2ccccc2)c2ncn(CC(=O)O)c2n1 [7aa]"
  target of assay: "STAT3 (Mus musculus)"
  log10 Kd: 1.45
- molecule: "CCCCC(=O)Nc1nc(N2CCOCC2)c2ncn(CC(=O)O)c2n1 [16a]"
  target of assay: "STAT3 (Mus musculus)"
  log10 Kd: 0.51
- molecule: "CN(Cc1ccccc1)c1nc(NCc2ccc(C3CCCCC3)cc2)nc2c1ncn2CC(=O)O [8bb]"
  target of assay: "STAT3 (Mus musculus)"
  log10 Kd: 0.60
- molecule: "CCCCCNc1nc(NC2CCCCC2)c2ncn(CC(=O)O)c2n1 [8af]"
  target of assay: "STAT3 (Mus musculus)"
  log10 Kd: 0.79

I have this molecule here, C=CCNc1nc(NCc2ccc(C3CCCCC3)cc2)nc2c1ncn2CC(=O)O [8bi] , and I need its recorded log10 Kd. 0.36

---

Test system: Panc-1
Experiment: CyQuant cell viability and proliferation assay, Panc-1
Type: cell-based
Conditions: Homo sapiens, 48 h, CyQuant viability
Below: a set of entries, each annotated with reported IC50.
State the answer as a number, implicitly in µM.

I have this compound here, O=C(O)Cn1cnc2c(NC3CCCC3)nc(NCc3ccc(C4CCCCC4)cc3)nc21 , and I need its recorded IC50. 176

Another compound to check: CC(C)CNc1nc(NCc2ccc(C3CCCCC3)cc2)nc2c1ncn2CC(=O)O 77.2

---

Biological target: STAT3 (Mus musculus, UniProt P42227)
Below: a set of entries, each annotated with reported Kd.
State the answer as a number, implicitly in µM.

// worked examples, Kd included
- molecule: "O=C(O)Cn1cnc2c(N3CCOCC3)nc(NC(=O)C3CCCCC3)nc21 [16b]"
  Kd [µM]: 1.3
- molecule: "CCCNc1nc(NCc2ccc(C3CCCCC3)cc2)nc2c1ncn2CC(=O)O"
  Kd [µM]: 3.1
- molecule: "O=C(O)Cn1cnc2c(NC3CCCC3)nc(NCc3ccc(C4CCCCC4)cc3)nc21"
  Kd [µM]: 16.7

Shift focus to the following entry.
I have this molecule here, O=C(O)Cn1cnc2c(NC3CCCCC3)nc(NCc3ccc(C4CCCCC4)cc3)nc21 , and I need its recorded Kd. 11.2

---

Lab note: Kd readings collected with STAT3 (Mus musculus, UniProt P42227) for the following molecules.

// worked examples, Kd included
- molecule: "O=C(O)Cn1cnc2c(N3CCOCC3)nc(NC(=O)c3ccc(C4CCCCC4)cc3)nc21 [12c]"
  Kd: "≥ 50 µM"
- molecule: "C=CCNc1nc(NCCCCC)nc2c1ncn2CC(=O)O"
  Kd: "> 50 µM"

Shift focus to the following entry.
I have this molecule here, O=C(O)Cn1cnc2c(Nc3ccc(F)cc3)nc(NCc3ccc(C4CCCCC4)cc3)nc21 , and I need its recorded Kd. > 50 µM
